experiment: Inhibition of Trypanosoma cruzi G6PD
READOUT_TYPE: IC50 (µM)
Report only the number, with the unit µM understood.

IC50 measured on Cc1cccc(Nc2ncc3c(n2)CCCC3=O)c1 = 0.63

IC50 measured on C[C@]12CC[C@H](O)C[C@@H]1CC[C@@H]1[C@@H]2CC[C@]2(C)C(=O)[C@H](Br)C[C@@H]12 [16.ALPHA.-BROMOEPIANDROSTERONE] = 0.086

IC50 measured on Cc1ccc(Nc2ncc3c(n2)CCCC3=O)cc1 = 10

IC50 measured on O=C(Cn1ccnc1[N+](=O)[O-])NCc1ccccc1 = 8.5

* * *

test: Inhibition of Plasmodium vivax G6PD
READOUT_TYPE: IC50
Please answer using the number first and the unit second.

IC50 measured on CCN1CCC[C@@H]1CNC(=O)c1ccc2c(c1)NC(=O)c1cccc(C)c1S2 = 15.3 µM

* * *

Can you tell me pIC50 for the items I'm about to list?
target: Glucose-6-phosphate 1-dehydrogenase (Homo sapiens); assay: Inhibition of human G6PD
Sequence (P11413 whole entry): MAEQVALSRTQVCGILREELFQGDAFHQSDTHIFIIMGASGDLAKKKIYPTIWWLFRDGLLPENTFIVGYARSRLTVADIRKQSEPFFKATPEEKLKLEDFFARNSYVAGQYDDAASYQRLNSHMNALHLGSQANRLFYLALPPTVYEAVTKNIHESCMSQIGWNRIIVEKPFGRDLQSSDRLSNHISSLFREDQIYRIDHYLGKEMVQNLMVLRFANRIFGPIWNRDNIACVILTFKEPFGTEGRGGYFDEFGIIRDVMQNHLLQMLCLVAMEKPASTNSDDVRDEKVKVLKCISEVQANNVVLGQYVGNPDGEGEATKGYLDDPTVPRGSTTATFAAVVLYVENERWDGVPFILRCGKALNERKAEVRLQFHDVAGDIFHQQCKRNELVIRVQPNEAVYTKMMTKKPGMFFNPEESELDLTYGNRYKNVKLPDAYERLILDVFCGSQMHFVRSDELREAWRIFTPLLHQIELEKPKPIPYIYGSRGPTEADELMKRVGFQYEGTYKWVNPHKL
// returns pIC50 (minus log10 of molar concentration), number only

pIC50 measured on COc1ccc(-n2c(-c3cccnc3)nc3ccccc3c2=O)cc1 = 5.52

pIC50 measured on O=c1c2ccccc2nc(-c2cccnc2)n1-c1ccc(Br)cn1 = 5.59

* * *

Can you tell me Ratio Ki for the items I'm about to list?
assay: Selectivity index, ratio of Ki for human G6PD to Ki for Plasmodium falciparum GluPho
Form rule: numeric answer, no unit written next to it.

Ratio Ki measured on CO[C@H]1O[C@H](CS(=O)(=O)CCCNC(=N)N)[C@@H](O)[C@H](O)[C@H]1O = 0.5

Ratio Ki measured on CO[C@H]1O[C@H](CS(=O)(=O)CCNC(=N)N)[C@@H](O)[C@H](O)[C@H]1O = 0.5

Ratio Ki measured on CO[C@H]1O[C@H](CS(=O)(=O)CCCN)[C@@H](O)[C@H](O)[C@H]1O = 1

Ratio Ki measured on CO[C@H]1O[C@H](CSCCN)[C@@H](O)[C@H](O)[C@H]1O = 26

Ratio Ki measured on CO[C@H]1O[C@H](CSCCCN)[C@@H](O)[C@H](O)[C@H]1O = 0.4

* * *

molecular target: Glucose-6-phosphate 1-dehydrogenase (Homo sapiens); assay: Inhibition of human C-terminal His tagged G6PD overexpressed in Escherichia coli BL21
Mark yes for IC50 under 3000 nM, no if at or over.

(Q) I wonder whether O=C1Nc2ccc(Br)cc2/C1=C1/SC(=S)N(C(Cc2ccccc2)C(=O)O)C1=O (stereo not given) has IC50 below 3000 nM. Can you tell?
(A) no

(Q) I wonder whether O=c1c2ccccc2nc(-c2cccnc2)n1-c1ccc(Br)cn1 has IC50 below 3000 nM. Can you tell?
(A) yes

(Q) I wonder whether COc1cc(/C=C2\C(=O)N(c3nc(-c4ccc(Cl)cc4)cs3)N=C2C)cc(OC)c1OC has IC50 below 3000 nM. Can you tell?
(A) yes

(Q) I wonder whether Cc1ccc(C)c(S(=O)(=O)Nc2ccc(O)c3ccccc23)c1 has IC50 below 3000 nM. Can you tell?
(A) yes

* * *

Can you tell me Ratio Ki for the items I'm about to list?
assay: Selectivity index, ratio of Ki for human G6PD to Ki for Plasmodium falciparum GluPho

Ratio Ki measured on CO[C@H]1O[C@H](CSCCNC(=N)N)[C@@H](O)[C@H](O)[C@H]1O = > 4.4

Ratio Ki measured on CO[C@H]1O[C@H](CS(=O)(=O)CCC#N)[C@@H](O)[C@H](O)[C@H]1O = > 2.9

Ratio Ki measured on CO[C@H]1O[C@H](CS(=O)(=O)CCN)[C@@H](O)[C@H](O)[C@H]1O = > 18

Ratio Ki measured on CO[C@H]1O[C@H](CSCCC#N)[C@@H](O)[C@H](O)[C@H]1O = > 0.8
